Below, each of the molecules is paired with its reported TGI value.
Test system: RPMI-8226 leukemia
Assay: NCI tumour cell line growth inhibition, 48 h

[
  {
    "MOLECULE": "CC1N(C)C(=O)OC12CCN(CCCC(=O)c1ccc(F)cc1)CC2 (stereo not given)",
    "TGI": "> 100 µM"
  },
  {
    "MOLECULE": "c1ccc2sc(C3(N4CCCCC4)CCCC3)cc2c1",
    "TGI": "10.4 µM"
  },
  {
    "MOLECULE": "CC1(C)OCC(C2OC(N3O[C@H](CI)C[C@@H]3c3ccccc3)C3OC(C)(C)OC23)O1 (stereo not given in full)",
    "TGI": "> 100 µM"
  },
  {
    "MOLECULE": "CC(=O)OC1COC(n2c(N)c(C#N)c(C)c(C#N)c2=S)C(OC(C)=O)C1OC(C)=O (stereo not given)",
    "TGI": "> 100 µM"
  },
  {
    "MOLECULE": "O=C1CCCC2=C1CC1=C(CCCC1=O)N2c1cccc2ccccc12",
    "TGI": "> 100 µM"
  },
  {
    "MOLECULE": "COC(=N)C12C(N)=NC(OC)(OC)C1(C#N)C21C(=O)N(c2ccccc2)N=C1C (stereo not given)",
    "TGI": "> 100 µM"
  },
  {
    "MOLECULE": "O=C1C(=O)N(c2ccc(Cl)c(Cl)c2)C(=O)C(=O)C1c1nc2ccccc2o1",
    "TGI": "66.5 µM"
  },
  {
    "MOLECULE": "O=C(NC(=S)Nc1ccc(Cl)cc1)c1ccccc1",
    "TGI": "> 100 µM"
  },
  {
    "MOLECULE": "CN(C)CCCNC(=O)c1cc(NC(=O)c2cc(NC(=O)c3cc(NC(=O)CCc4c[nH]c5ccccc45)cn3C)cn2C)cn1C",
    "TGI": "> 100 µM"
  },
  {
    "MOLECULE": "Cn1c(=O)c2[nH]c(CS(=O)(=O)Cc3nc4c([nH]3)c(=O)n(C)c(=O)n4C)nc2n(C)c1=O",
    "TGI": "> 100 µM"
  },
  {
    "MOLECULE": "COc1ccc(CN(CCc2c[nH]c3ccccc23)Cc2ccc(OC)cc2)cc1",
    "TGI": "> 41.9 µM"
  },
  {
    "MOLECULE": "COc1cc2cc(C(=O)N3CC(CCl)c4ccc(NCCN)cc43)[nH]c2c(OC)c1OC (stereo not given)",
    "TGI": "1.17 µM"
  },
  {
    "MOLECULE": "N=C(N)CCCCCCCCC(=N)N",
    "TGI": "> 100 µM"
  },
  {
    "MOLECULE": "CNC(=O)c1n[nH][nH]c1=O",
    "TGI": "> 100 µM"
  },
  {
    "MOLECULE": "Nc1nc(SCc2ccccc2)c2ncn(Cc3ccccc3)c2n1",
    "TGI": "> 100 µM"
  },
  {
    "MOLECULE": "C[C@]12CC(c3ccccc3O1)C(C(=O)NC13CC4CC(CC(C4)C1)C3)C(=O)N2 (stereo not given in full)",
    "TGI": "31.3 µM"
  },
  {
    "MOLECULE": "O=C1c2ccccc2-c2ccc(N=[N+]([O-])c3ccc4c(c3)C(=O)c3ccccc3-4)cc21",
    "TGI": "> 100 µM"
  },
  {
    "MOLECULE": "C=C1C(=O)O[C@H]2[C@H]1CC/C(Cn1cc(-c3ccccc3)nn1)=C\\CC[C@@]1(C)O[C@@H]21",
    "TGI": "11.1 µM"
  },
  {
    "MOLECULE": "Cc1c2c(n(CCc3ccccc3)c1C)NN=C(C#N)S2(=O)=O",
    "TGI": "> 100 µM"
  },
  {
    "MOLECULE": "Cc1cc(S(=O)(=O)Nc2nnc(-c3ccccc3)c(-c3ccccc3)n2)c(SCc2ccccc2)cc1Cl",
    "TGI": "52.8 µM"
  }
]
